- Assay notes: Acute toxicity test
- Assay type: in vivo
- Test conditions: mouse, in vivo; intravenous injection; mortality at the 7th day; Probit method; read-out: LD₅₀
Quantity kind: LD50 at 168 h (mg/kg)
The answer is to be given in mg/kg; state only the numeric part.

Q) Reported LD50 at 168 h, compound CCCCCCCCCCCCCCOCC(COC1(C(=O)O)CC(O)C(NC(C)=O)C(C(O)C(O)CO)O1)OCCCCCCCCCCCCCC (stereo not shown) : ____
A) 581

* * *

- Assay notes: Acute toxicity test
- Type: in vivo
- Test conditions: mouse, in vivo; oral administration; mortality at the 7th day; Probit method; read-out: LD₅₀
Quantity kind: LD50 at 168 h (mg/kg)
Numbers only here, please. The scale is mg/kg.

Q) Record request: LD50 at 168 h value, item CCCCCCCCCCCCCCOCC(COC1(C(=O)O)CC(O)C(NC(C)=O)C(C(O)C(O)CO)O1)OCCCCCCCCCCCCCC (stereo not shown)
A) 5000
